Target: T1, human GFRα3 expressed with a C-terminal myc-myc-hexahistidine tag (human, UniProt O60609 32-374, biotinylated (sites not given) in ELISA format 2 and in the Octet cross-competition; not in SPR)
T1 construct: also called hGFRα3-mmh; hGFRα3-mmH
T1 sequence (O60609 other isoform, or with tags, fused parts or gaps limits assumed): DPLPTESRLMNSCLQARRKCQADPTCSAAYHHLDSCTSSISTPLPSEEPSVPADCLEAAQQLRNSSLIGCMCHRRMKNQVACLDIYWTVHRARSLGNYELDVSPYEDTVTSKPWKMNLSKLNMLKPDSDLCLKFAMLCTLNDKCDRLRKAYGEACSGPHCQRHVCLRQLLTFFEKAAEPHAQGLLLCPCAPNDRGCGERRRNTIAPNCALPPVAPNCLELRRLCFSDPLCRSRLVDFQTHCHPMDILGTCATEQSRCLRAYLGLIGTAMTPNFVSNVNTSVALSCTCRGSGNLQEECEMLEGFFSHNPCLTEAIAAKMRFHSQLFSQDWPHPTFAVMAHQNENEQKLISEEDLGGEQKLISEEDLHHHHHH
Test: SPR, Ab captured, 37C
ASSAY_METRIC: koff
Hi, when you answer, please include the unit after the number. Thanks!

{"BINDER": "H4H2364S (antibody, human IgG4, V domains shown, human IgG4 Fc (H4H)) VH: EVQLVESGGGLEQPGGSLRLSCAASGFTFSSYVMSWVRQVPGKGLEWVSVISGSGGSTYYADSVKGRFTISRDNSKNTLYLQMNSLRAEDTAVYYCAKPSSYSSSNFHYGMDVWGQGTTVTVSS VL: DIQMTQSPYSVSASVGDRVTITCRASQGISSWLAWYQQKPGRAPKLLIYAASSLQSGVPSRFSGSGSGTDFTLTISSLQPEDFATYYCQKTNSFPFTFGPGTKVEIK", "koff": "0.000273 s⁻¹"}
{"BINDER": "H1M2243N (antibody, V domains shown, chimeric, human variable and mouse constant domains (H1M)) VH: QVQLVQSGAEVKKPGASVKVSCKASGYTFTSYGIIWVRQAPGQGLEWMGWISGYNGNTNYTQNLQGRVTMTTDTSTTTAYMELRSLRSDDTAVYYCARWGIATRPYYYYGMDVWGQGTTVTVSS VL: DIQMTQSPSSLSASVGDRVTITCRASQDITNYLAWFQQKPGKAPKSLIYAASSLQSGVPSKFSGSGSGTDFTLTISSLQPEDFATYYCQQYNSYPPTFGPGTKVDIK", "koff": "0.000595 s⁻¹"}
{"BINDER": "H2aM2210N (antibody, mouse IgG2, V domains shown, chimeric, mouse IgG2 Fc (H2M/H2aM); also called H2M2210N) VH: EVQLLESGGGLVQPGGSLRVSCAASGFTFSTSAMSWVRQAPGKGLEWVSGISGIGGGSTYYADSVKGRFTISRDNSKNTLYLQMNSLRAEDTAVYFCAKFYKWNSYIFDLWGQGTMVTVSS VL: EIVLTQSPDTLSLSPGERATLSCRASQSVSSSYFAWYQQKPGQAPRLLMYSASSRATGIPDRFSGSGSGTDFSLTISRLEPEDFAVYYCQQYGRSLTFGGGTKVEIK", "koff": "0.00335 s⁻¹"}
{"BINDER": "H4H2352S (antibody, human IgG4, V domains shown, human IgG4 Fc (H4H); also called H4H2352S-1) VH: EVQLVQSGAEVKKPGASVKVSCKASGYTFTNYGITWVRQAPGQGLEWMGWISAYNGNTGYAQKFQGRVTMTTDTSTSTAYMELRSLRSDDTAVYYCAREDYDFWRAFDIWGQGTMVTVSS VL: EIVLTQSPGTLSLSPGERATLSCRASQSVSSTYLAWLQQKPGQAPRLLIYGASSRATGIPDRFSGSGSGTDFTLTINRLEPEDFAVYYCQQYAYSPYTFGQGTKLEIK", "koff": "0.000139 s⁻¹"}

Okay, next one:
stdin: Give recorded koff. H4H2346S (antibody, human IgG4, V domains shown, human IgG4 Fc (H4H)) VH: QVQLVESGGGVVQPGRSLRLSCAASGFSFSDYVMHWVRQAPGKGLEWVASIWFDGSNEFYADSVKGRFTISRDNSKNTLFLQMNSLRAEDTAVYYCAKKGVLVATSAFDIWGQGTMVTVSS VL: EIVMTQSPSSLSASVGDRVTITCRASQSINNYLNWYHQKPGKAPKLLIYAASSLQSGVPSRFSGSGSGTDYTLTISSLQPEDFGNYYCQQSYRTSMYTFGQGTKVEIK
stdout: 0.000589 s⁻¹
